- Tested on: Bovine viral diarrhea virus 1
- assayProtocol: Antiviral activity against Bovine viral diarrhea virus 1 infected bovine MDBK cells assessed as protection against virus-induced cytopathogenicity treated 1 hr after viral infection measured after 3-4 days by MTT method
- Type: functional, organism-based
- appliedConditions: Bovine viral diarrhea virus isolates and strains
Can you tell me EC50 for the items I'm about to list?

# annotated cases, reported EC50 shown
In [3]: df
Out[3]:
                                 smilesdata  datavalue
0    c1ccc(-c2nnc3nnc4c5ccccc5[nH]c4n23)cc1   > 100 µM
1  c1ccc(Oc2cccc(-c3nnc4nnc5c6ccccc6[nH]c5n34)c2)cc1   > 100 µM

// for each compound below, give its EC50
1. C[C@@]1(O)[C@H](O)[C@@H](CO)O[C@H]1n1cnc2c(=O)[nH]c(N)nc21
2. Cc1ccc(-c2nnc3nnc4c5ccccc5[nH]c4n23)cc1
3. COc1ccc(-c2nnc3nnc4c5ccccc5[nH]c4n23)cc1OC

**A:**
1: 1.8 µM; 2: > 100 µM; 3: > 100 µM

Below are some compounds; for each one, tell me its EC50.
1. COc1ccc(-c2nnc3nnc4c5ccccc5[nH]c4n23)cc1
2. Fc1ccc(-c2nnc3nnc4c5ccccc5[nH]c4n23)cc1
3. Oc1ccc(-c2nnc3nnc4c5ccccc5[nH]c4n23)cc1
4. Clc1ccc(-c2nnc3nnc4c5ccccc5[nH]c4n23)cc1
5. Oc1cccc(-c2nnc3nnc4c5ccccc5[nH]c4n23)c1
6. COc1cc(-c2nnc3nnc4c5ccccc5[nH]c4n23)ccc1O

**A:**
1: > 100 µM; 2: > 100 µM; 3: > 100 µM; 4: > 100 µM; 5: > 100 µM; 6: 90 µM

**Q:** So what does the record say about EC50 for COc1cccc(-c2nnc3nnc4c5ccccc5[nH]c4n23)c1 ?
**A:** > 64 µM
